Recorded values, source paper PMC6130518.

System: Caco-2 cell monolayers
procedure text: Transport experiment with Caco-2 cell monolayers
experimental context: Caco-2 cell monolayers, extract 30 mg/mL, BL→AP
assay metric: transport percentage (%)
Your answer is read as %, so omit the unit and give the number.

1. COc1ccc(C(=O)O)cc1OC; 80.33
2. O=c1cc(-c2ccc(O)cc2)oc2c([C@@H]3O[C@H](CO)[C@@H](O)[C@H](O)[C@H]3O)c(O)cc(O)c12; 8.74
3. O=c1cc(-c2ccc(O)c(O)c2)oc2c(C3OC(CO)C(O)C(O)C3OC3OC(CO)C(O)C(O)C3O)c(O)cc(O)c12 (stereo not drawn); 16.83

Tell me measured transport percentage for O=c1cc(-c2ccc(O)c(O)c2)oc2c([C@@H]3O[C@H](CO)[C@@H](O)[C@H](O)[C@H]3O)c(O)cc(O)c12 please.
6.56

Specify measured transport percentage for COc1cc(C(=O)O)cc(CC=C(C)C)c1O .
42.47

Return the recorded transport percentage value; entry: O=C1CC[C@H]2c3cc(O)c(O)cc3CCN12
74.30

====

Papp at 180 min, 30 mg/mL for assorted compounds
procedure text: Absorption experiment with everted gut sacs
experimental context: Sprague-Dawley, rat
Quick note: give the figure in ×10⁻⁶ cm/s, leave out the unit.

Look over these answered cases.
1) O=c1cc(-c2ccc(O)cc2)oc2c([C@@H]3O[C@H](CO)[C@@H](O)[C@H](O)[C@H]3O)c(O)cc(O)c12 [vitexin]; 38.1
2) O=C1CC[C@H]2c3cc(O)c(O)cc3CCN12 [trolline]; 151
3) O=c1cc(-c2ccc(O)c(O)c2)oc2c([C@@H]3O[C@H](CO)[C@@H](O)[C@H](O)[C@H]3O)c(O)cc(O)c12 [orientin]; 34
4) COc1ccc(C(=O)O)cc1OC [veratric acid]; 142
5) O=c1cc(-c2ccc(O)c(O)c2)oc2c(C3OC(CO)C(O)C(O)C3OC3OC(CO)C(O)C(O)C3O)c(O)cc(O)c12 [2″-O-β-L-galactopyranosylorientin]; 46.7

Field: next compound
// Input: COc1cc(C(=O)O)cc(CC=C(C)C)c1O [proglobeflowery acid] . Output its Papp at 180 min, 30 mg/mL only.
586

====

Tested on: Caco-2 cell monolayers
procedure text: Transport experiment with Caco-2 cell monolayers
experimental context: intestinal bacterial transformed AEOF; third of three lines per compound (highest concentration, not given)
Outcome label depends on After transported with Caco-2 cell monolayers relative to 0.8 µg/mL: at/above gives YES, below gives NO.

These recorded examples may help you get a feel for the data.
1. O=c1cc(-c2ccc(O)cc2)oc2c([C@@H]3O[C@H](CO)[C@@H](O)[C@H](O)[C@H]3O)c(O)cc(O)c12 [vitexin]; NO
2. O=c1c(O)c(-c2ccc(O)c(O)c2)oc2cc(O)cc(O)c12 [quercetin]; NO
3. COc1ccc(C(=O)O)cc1OC [veratric acid]; YES
4. O=c1c(O[C@@H]2O[C@H](CO)[C@@H](O)[C@H](O)[C@H]2O)c(-c2ccc(O)c(O)c2)oc2cc(O)cc(O)c12 [isoquercetin]; NO
5. O=c1cc(-c2ccc(O)c(O)c2)oc2c(C3OC(CO)C(O)C(O)C3OC3OC(CO)C(O)C(O)C3O)c(O)cc(O)c12 [2″-O-β-L-galactopyranosylorientin]; YES
6. COc1cc(C(=O)O)cc(CC=C(C)C)c1O [proglobeflowery acid]; YES
7. O=C1CC[C@H]2c3cc(O)c(O)cc3CCN12 [trolline]; YES

Alright, here's another molecule for you.
hey, is After transported with Caco-2 cell monolayers for this one >= 0.8 µg/mL? COc1cc(C(=O)O)cc(CC=C(C)C)c1OC1OC(CO)C(O)C(O)C1O (stereo not drawn) [trollioside]
NO

====

Tested on: activated intestinal bacteria
procedure text: Intestinal bacterial transformation of AEOF
Assay type: in vitro ADME, human
experimental context: content in the extract; first of three lines per compound (lowest extract concentration)
After transformed by intestinal bacteria vs 3 µg/mL: less than gives fulfilled; not less than gives not fulfilled.

For orientation, consider the following solved cases.
1) COc1ccc(C(=O)O)cc1OC; not fulfilled
2) O=c1cc(-c2ccc(O)cc2)oc2c([C@@H]3O[C@H](CO)[C@@H](O)[C@H](O)[C@H]3O)c(O)cc(O)c12; not fulfilled
3) O=c1c(O)c(-c2ccc(O)c(O)c2)oc2cc(O)cc(O)c12; fulfilled
4) O=c1cc(-c2ccc(O)c(O)c2)oc2c([C@@H]3O[C@H](CO)[C@@H](O)[C@H](O)[C@H]3O)c(O)cc(O)c12; not fulfilled
5) COc1cc(C(=O)O)cc(CC=C(C)C)c1OC1OC(CO)C(O)C(O)C1O (stereo not drawn) [trollioside]; fulfilled
6) O=C1CC[C@H]2c3cc(O)c(O)cc3CCN12; not fulfilled
7) O=c1cc(-c2ccc(O)c(O)c2)oc2c(C3OC(CO)C(O)C(O)C3OC3OC(CO)C(O)C(O)C3O)c(O)cc(O)c12 (stereo not drawn); not fulfilled
8) COc1cc(C(=O)O)cc(CC=C(C)C)c1O; not fulfilled

Could you now look at the following compound, please?
# TODO verify After transformed by intestinal bacteria < 3 µg/mL strictly for this compound: O=c1c(O[C@@H]2O[C@H](CO)[C@@H](O)[C@H](O)[C@H]2O)c(-c2ccc(O)c(O)c2)oc2cc(O)cc(O)c12
fulfilled

====

System: Caco-2 cell monolayers
procedure text: Transport experiment with Caco-2 cell monolayers
experimental context: intestinal bacterial transformed AEOF; second of three lines per compound (middle concentration, not given)
assay metric: After transported with Caco-2 cell monolayers (µg/mL)
Enter your answer as a number in µg/mL; do not include the unit.

# example entries with known answers
1) COc1cc(C(=O)O)cc(CC=C(C)C)c1OC1OC(CO)C(O)C(O)C1O (stereo not drawn) [trollioside]; 0.00
2) COc1ccc(C(=O)O)cc1OC; 1.62
3) O=c1cc(-c2ccc(O)c(O)c2)oc2c(C3OC(CO)C(O)C(O)C3OC3OC(CO)C(O)C(O)C3O)c(O)cc(O)c12 (stereo not drawn); 1.44
4) O=c1c(O)c(-c2ccc(O)c(O)c2)oc2cc(O)cc(O)c12; 0.00
5) O=c1cc(-c2ccc(O)cc2)oc2c([C@@H]3O[C@H](CO)[C@@H](O)[C@H](O)[C@H]3O)c(O)cc(O)c12; 0.23

# input for lookup
Return After transported with Caco-2 cell monolayers for the following compound: O=c1cc(-c2ccc(O)c(O)c2)oc2c([C@@H]3O[C@H](CO)[C@@H](O)[C@H](O)[C@H]3O)c(O)cc(O)c12
0.35

====

# Papp at 180 min, 10 mg/mL listing for each entry below
procedure text: Transport experiment with Caco-2 cell monolayers
experimental context: human, Caco-2, Papp, Caco-2 cell monolayers, extract 10 mg/mL, AP→BL
A number alone suffices; assume ×10⁻⁶ cm/s.

Worked set:
1) COc1cc(C(=O)O)cc(CC=C(C)C)c1O; 105
2) O=c1cc(-c2ccc(O)cc2)oc2c([C@@H]3O[C@H](CO)[C@@H](O)[C@H](O)[C@H]3O)c(O)cc(O)c12; 39.6
3) O=c1cc(-c2ccc(O)c(O)c2)oc2c([C@@H]3O[C@H](CO)[C@@H](O)[C@H](O)[C@H]3O)c(O)cc(O)c12; 25.3

Read the entry O=c1cc(-c2ccc(O)c(O)c2)oc2c(C3OC(CO)C(O)C(O)C3OC3OC(CO)C(O)C(O)C3O)c(O)cc(O)c12 (stereo not drawn) and write its reported Papp at 180 min, 10 mg/mL.
11.1

Output measured Papp at 180 min, 10 mg/mL for this item: COc1ccc(C(=O)O)cc1OC
104

Supply recorded Papp at 180 min, 10 mg/mL for O=C1CC[C@H]2c3cc(O)c(O)cc3CCN12 here.
112

====

Test system: Caco-2 cell monolayers
procedure text: Transport experiment with Caco-2 cell monolayers
experimental context: Caco-2 cell monolayers, extract 10 mg/mL, BL→AP
Rule: measured transport percentage below 90% gets True; anything equal to or greater than 90% gets False.

Some solved cases for reference:
1. O=c1cc(-c2ccc(O)c(O)c2)oc2c([C@@H]3O[C@H](CO)[C@@H](O)[C@H](O)[C@H]3O)c(O)cc(O)c12; True
2. O=c1cc(-c2ccc(O)cc2)oc2c([C@@H]3O[C@H](CO)[C@@H](O)[C@H](O)[C@H]3O)c(O)cc(O)c12; True
3. O=c1cc(-c2ccc(O)c(O)c2)oc2c(C3OC(CO)C(O)C(O)C3OC3OC(CO)C(O)C(O)C3O)c(O)cc(O)c12 (stereo not drawn); True
4. COc1ccc(C(=O)O)cc1OC; False

Now for a further compound.
Would you kindly verify if transport percentage of O=C1CC[C@H]2c3cc(O)c(O)cc3CCN12 is strictly less than 90%?
False

====

procedure text: Transport experiment with Caco-2 cell monolayers
experimental context: human, Caco-2, Papp, Caco-2 cell monolayers, extract 30 mg/mL, AP→BL
Response field label takes y when Papp at 180 min, 30 mg/mL is strictly below 100 ×10⁻⁶ cm/s and n in all other cases.

1. COc1ccc(C(=O)O)cc1OC; n

In plain terms, does O=c1cc(-c2ccc(O)cc2)oc2c([C@@H]3O[C@H](CO)[C@@H](O)[C@H](O)[C@H]3O)c(O)cc(O)c12 come in under 100 ×10⁻⁶ cm/s for Papp at 180 min, 30 mg/mL?
y

Consider the compound COc1cc(C(=O)O)cc(CC=C(C)C)c1O . Is its Papp at 180 min, 30 mg/mL strictly less than 100 ×10⁻⁶ cm/s?
n

# strict comparison: is reported Papp at 180 min, 30 mg/mL < 100 ×10⁻⁶ cm/s? input = O=C1CC[C@H]2c3cc(O)c(O)cc3CCN12
n

# strict comparison: is reported Papp at 180 min, 30 mg/mL < 100 ×10⁻⁶ cm/s? input = O=c1cc(-c2ccc(O)c(O)c2)oc2c([C@@H]3O[C@H](CO)[C@@H](O)[C@H](O)[C@H]3O)c(O)cc(O)c12
y

Determine if O=c1cc(-c2ccc(O)c(O)c2)oc2c(C3OC(CO)C(O)C(O)C3OC3OC(CO)C(O)C(O)C3O)c(O)cc(O)c12 (stereo not drawn) shows Papp at 180 min, 30 mg/mL strictly lower than 100 ×10⁻⁶ cm/s.
y
